system-name: Trypsin, from human pancreas (Homo sapiens)
Where a SMILES comes first, the peptide text is derived from it.
readout-kind: IC50 (nM)
Provide the reading as a plain figure in nM.

Summary: CCCC[C@@H]1NC(=O)[C@@H]2CCCN2C(=O)[C@H]2CCCN2C(=O)[C@H](CCCNC(=N)N)NC(=O)[C@@H]2CSSC[C@H](NC1=O)C(=O)N[C@@H]([C@@H](C)O)C(=O)N[C@@H](CCCCN)C(=O)N[C@@H](CO)C(=O)N[C@@H](CC(C)C)C(=O)N1CCC[C@H]1C(=O)N1CCC[C@H]1C(=O)N[C@@H](CCCCN)C(=O)N2 [Ex. 192] (HELM PEPTIDE1{[Nle].C.T.K.S.L.P.P.K.C.R.[dP].P}$PEPTIDE1,PEPTIDE1,2:R3-10:R3|PEPTIDE1,PEPTIDE1,1:R1-13:R2$$$V2.0) , Trypsin, from human pancreas (Homo sapiens), IC50 = 72

* * *

Collected Cytotoxicity LC50/GI50 Hela cells values appear next to each entry.
System: HELA cells (Acc57)
assay-text: Cytotoxicity assay (MTT reduction), HELA cells
Type: cell-based
particulars: Hela cells
Where a SMILES comes first, the peptide text is derived from it.
Provide the reading as a plain figure in µM.

Solved cases (3 shown):
{"compound": "CCCC[C@@H]1NC(=O)[C@@H]2CCCN2C(=O)[C@H]2CCCN2C(=O)[C@H](Cc2ccc(O)cc2)NC(=O)[C@@H]2CSSC[C@H](NC1=O)C(=O)N[C@@H]([C@@H](C)O)C(=O)N[C@@H](C)C(=O)N[C@@H](CO)C(=O)N[C@@H]([C@@H](C)CC)C(=O)N1CCC[C@H]1C(=O)N1CCC[C@H]1C(=O)N[C@@H](Cc1ccccc1)C(=O)N2 [Ex. 89] (HELM PEPTIDE1{[Nle].C.T.A.S.I.P.P.F.C.Y.[dP].P}$PEPTIDE1,PEPTIDE1,2:R3-10:R3|PEPTIDE1,PEPTIDE1,1:R1-13:R2$$$V2.0)", "system-name": "HELA cells (Acc57)", "output-unit": "µM", "numeric-readout": 51}
{"compound": "CCCCCC[C@@H]1NC(=O)[C@H](CO)NC(=O)[C@H](C)NC(=O)[C@H]([C@@H](C)O)NC(=O)[C@@H]2CSSC[C@H](NC(=O)[C@H](CCC(N)=O)NC(=O)[C@@H]3CCCN3C(=O)[C@@H]3CCCN3C1=O)C(=O)N[C@@H](Cc1ccc(O)cc1)C(=O)N1CCC[C@@H]1C(=O)N1CCC[C@H]1C(=O)N[C@@H](CCCC)C(=O)N2 [Ex. 80] (HELM PEPTIDE1{[Nle].C.T.A.S.[CCCCCC[C@H](N[*:1])C(=O)[*:2]].P.P.Q.C.Y.[dP].P}$PEPTIDE1,PEPTIDE1,2:R3-10:R3|PEPTIDE1,PEPTIDE1,1:R1-13:R2$$$V2.0)", "system-name": "HELA cells (Acc57)", "output-unit": "µM", "numeric-readout": 12}
{"compound": "CC[C@H](C)[C@@H]1NC(=O)[C@@H]2CCCN2C(=O)[C@@H]2CCCN2C(=O)[C@H](CC(=O)O)NC(=O)[C@H](CO)NC(=O)[C@H](CCCCN)NC(=O)[C@H]([C@@H](C)O)NC(=O)[C@@H]2CSSC[C@H](NC1=O)C(=O)N[C@@H](CC(N)=O)C(=O)N1CCC[C@@H]1C(=O)N1CCC[C@H]1C(=O)N[C@@H](Cc1ccccc1)C(=O)N2 [Ex. 3] (HELM PEPTIDE1{F.C.T.K.S.D.P.P.I.C.N.[dP].P}$PEPTIDE1,PEPTIDE1,2:R3-10:R3|PEPTIDE1,PEPTIDE1,1:R1-13:R2$$$V2.0)", "system-name": "HELA cells (Acc57)", "output-unit": "µM", "numeric-readout": 100}

As a next step, examine the compound that follows.
Record CC[C@H](C)[C@@H]1NC(=O)[C@@H]2CCCN2C(=O)[C@@H]2CCCN2C(=O)[C@H](CC(=O)O)NC(=O)[C@H](CO)NC(=O)[C@H](CCCCN)NC(=O)[C@H]([C@@H](C)O)NC(=O)[C@@H]2CSSC[C@H](NC1=O)C(=O)N[C@@H](CC(=O)O)C(=O)N1CCC[C@@H]1C(=O)N1CCC[C@H]1C(=O)N[C@@H](C1CCCCC1)C(=O)N2 [Ex. 39] (HELM PEPTIDE1{[O=C([C@@H](N[*:1])C1CCCCC1)[*:2]].C.T.K.S.D.P.P.I.C.D.[dP].P}$PEPTIDE1,PEPTIDE1,2:R3-10:R3|PEPTIDE1,PEPTIDE1,1:R1-13:R2$$$V2.0) , field Cytotoxicity LC50/GI50 Hela cells: 98

* * *

system-name: Urokinase from human urine (Homo sapiens)
assay-text: Enzymatic assay, urokinase
Where a SMILES comes first, the peptide text is derived from it.
Collected Urokinase at 100 μM % values appear next to each entry.
Provide the reading as a plain figure in %.

{"compound": "CC[C@H](C)[C@@H]1NC(=O)[C@@H]2CCCN2C(=O)[C@@H]2CCCN2C(=O)[C@H](CC(=O)O)NC(=O)[C@H](CO)NC(=O)[C@H](CCCCN)NC(=O)[C@H]([C@@H](C)O)NC(=O)[C@@H]2CSSC[C@H](NC1=O)C(=O)N[C@@H](CO)C(=O)N[C@H](C)C(=O)N[C@@H](CC(=O)O)C(=O)N[C@@H](Cc1ccccc1)C(=O)N2 [Ex. 68] (HELM PEPTIDE1{F.C.T.K.S.D.P.P.I.C.S.[dA].D}$PEPTIDE1,PEPTIDE1,2:R3-10:R3|PEPTIDE1,PEPTIDE1,1:R1-13:R2$$$V2.0)", "Urokinase at 100 μM % / %": 4.6}
{"compound": "CC[C@H](C)[C@@H]1NC(=O)[C@@H]2CCCN2C(=O)[C@H]2CCCN2C(=O)[C@H](CCCNC(=N)N)NC(=O)[C@@H]2CSSC[C@H](NC1=O)C(=O)N[C@@H]([C@@H](C)O)C(=O)N[C@@H](CCCCN)C(=O)N[C@@H](CO)C(=O)N[C@@H](CC(=O)O)C(=O)N1CCC[C@H]1C(=O)N1CCC[C@H]1C(=O)N[C@@H](CC1CCCCC1)C(=O)N2 [Ex. 58] (HELM PEPTIDE1{I.C.T.K.S.D.P.P.[Cha].C.R.[dP].P}$PEPTIDE1,PEPTIDE1,2:R3-10:R3|PEPTIDE1,PEPTIDE1,1:R1-13:R2$$$V2.0)", "Urokinase at 100 μM % / %": 6.7}
{"compound": "CCCC[C@@H]1NC(=O)[C@@H]2CCCN2C(=O)[C@H]2CCCN2C(=O)[C@H](Cc2ccccc2)NC(=O)[C@@H]2CSSC[C@H](NC1=O)C(=O)N[C@@H]([C@@H](C)O)C(=O)N[C@@H](C)C(=O)N[C@@H](CO)C(=O)N[C@@H]([C@@H](C)CC)C(=O)N1CCC[C@H]1C(=O)N1CCC[C@H]1C(=O)N[C@@H](CCC(N)=O)C(=O)N2 [Ex. 90] (HELM PEPTIDE1{[Nle].C.T.A.S.I.P.P.Q.C.F.[dP].P}$PEPTIDE1,PEPTIDE1,2:R3-10:R3|PEPTIDE1,PEPTIDE1,1:R1-13:R2$$$V2.0)", "Urokinase at 100 μM % / %": 3.5}
{"compound": "C[C@@H](O)[C@@H]1NC(=O)[C@@H]2CSSC[C@H](NC(=O)[C@H](CC3CCCCC3)NC(=O)[C@@H]3CCCN3C(=O)[C@@H]3CCCN3C(=O)[C@H](CC(=O)O)NC(=O)[C@H](CO)NC(=O)[C@H](CCCCN)NC1=O)C(=O)N[C@@H](CO)C(=O)N1CCC[C@@H]1C(=O)N1CCC[C@H]1C(=O)N[C@@H](Cc1ccccc1)C(=O)N2 [compound 54] (HELM PEPTIDE1{F.C.T.K.S.D.P.P.[Cha].C.S.[dP].P}$PEPTIDE1,PEPTIDE1,2:R3-10:R3|PEPTIDE1,PEPTIDE1,1:R1-13:R2$$$V2.0)", "Urokinase at 100 μM % / %": 3.2}
{"compound": "CCCC[C@@H]1NC(=O)[C@@H]2CCCN2C(=O)[C@H]2CCCN2C(=O)[C@H]([C@@H](C)O)NC(=O)[C@@H]2CSSC[C@H](NC1=O)C(=O)N[C@@H]([C@@H](C)O)C(=O)N[C@@H](CCCCN)C(=O)N[C@@H](CO)C(=O)N[C@@H](CC(=O)O)C(=O)N1CCC[C@H]1C(=O)N1CCC[C@H]1C(=O)N[C@@H]([C@@H](C)CC)C(=O)N2 [Ex. 42] (HELM PEPTIDE1{[Nle].C.T.K.S.D.P.P.I.C.T.[dP].P}$PEPTIDE1,PEPTIDE1,2:R3-10:R3|PEPTIDE1,PEPTIDE1,1:R1-13:R2$$$V2.0)", "Urokinase at 100 μM % / %": 7}
{"compound": "CC[C@H](C)[C@@H]1NC(=O)[C@@H]2CCCN2C(=O)[C@@H]2CCCN2C(=O)[C@H](CC(=O)O)NC(=O)[C@H](CO)NC(=O)[C@H](CCCCN)NC(=O)[C@H]([C@@H](C)O)NC(=O)[C@@H]2CSSC[C@H](NC1=O)C(=O)N[C@@H](CC(N)=O)C(=O)N1CCC[C@@H]1C(=O)N1CCC[C@H]1C(=O)N[C@@H](Cc1ccc(N)cc1)C(=O)N2 [Ex. 31] (HELM PEPTIDE1{[Nc1ccc(C[C@H](N[*:1])C(=O)[*:2])cc1].C.T.K.S.D.P.P.I.C.N.[dP].P}$PEPTIDE1,PEPTIDE1,2:R3-10:R3|PEPTIDE1,PEPTIDE1,1:R1-13:R2$$$V2.0)", "Urokinase at 100 μM % / %": 15}
{"compound": "CCCC[C@@H]1NC(=O)[C@H](CC(=O)O)NC(=O)[C@H]2CCCN2C(=O)[C@H](Cc2ccc(O)cc2)NC(=O)[C@@H]2CSSC[C@H](NC1=O)C(=O)N[C@@H]([C@@H](C)O)C(=O)N[C@@H](C)C(=O)N[C@@H](CO)C(=O)N[C@@H]([C@@H](C)CC)C(=O)N1CCC[C@H]1C(=O)N1CCC[C@H]1C(=O)N[C@@H](CCC(N)=O)C(=O)N2 [Ex. 121] (HELM PEPTIDE1{[Nle].C.T.A.S.I.P.P.Q.C.Y.[dP].D}$PEPTIDE1,PEPTIDE1,2:R3-10:R3|PEPTIDE1,PEPTIDE1,1:R1-13:R2$$$V2.0)", "Urokinase at 100 μM % / %": 5.7}

As a next step, examine the compound that follows.
Record CCCC[C@@H]1NC(=O)[C@@H]2CCCN2C(=O)[C@H]2CCCN2C(=O)[C@H](c2ccccc2)NC(=O)[C@@H]2CSSC[C@H](NC1=O)C(=O)N[C@@H]([C@@H](C)O)C(=O)N[C@@H](C)C(=O)N[C@@H](CO)C(=O)N[C@@H]([C@@H](C)CC)C(=O)N1CCC[C@H]1C(=O)N1CCC[C@H]1C(=O)N[C@@H](CCC(N)=O)C(=O)N2 [Ex. 98] (HELM PEPTIDE1{[Nle].C.T.A.S.I.P.P.Q.C.[Phg].[dP].P}$PEPTIDE1,PEPTIDE1,2:R3-10:R3|PEPTIDE1,PEPTIDE1,1:R1-13:R2$$$V2.0) , field Urokinase at 100 μM %: 0
